# Test system: SK-MEL-5 melanoma
# test summary: NCI tumour cell line growth inhibition, 48 h
experimental readout: TGI (µM)
Give your result in µM as a bare value.

Inquiry: # lookup: TGI of COc1cc(C(=O)c2cc(C)c3[nH]c4ccc(O)cc4c3c2C)cc(OC)c1OC
Reply text: 0.0637

Inquiry: What TGI value was documented for this compound, N#CCN1C(=O)c2cc([N+](=O)[O-])cc3cc([N+](=O)[O-])cc(c23)C1=O ?
Reply text: 29.8

Inquiry: TGI for CN1CCN(P2(=S)Oc3ccc4ccccc4c3-c3c(ccc4ccccc34)O2)CC1 ?
Reply text: 53.2

Inquiry: Please give the measured TGI for this compound: CC1C=CC(OC(=O)C(C)(O)CCC(O)(C(=O)OC2CC(O)C(C(C)C)CC2(C)O)C(C)C)(C(C)C)CC1 (stereo not drawn)
Reply text: 1.03

Inquiry: Which value of TGI has been reported for C[C@@H]1Cc2cc(O)ccc2[C@H]2CC[C@]3(C)/C(=C/COCCN(C)C)CC[C@H]3[C@H]12 (tested in a mixture with another compound) in the records?
Reply text: 0.453

Inquiry: # query: TGI of entry CN(C)CCNC(=O)c1cccc2c(NC(CCC(N)=O)C(=O)O)c3ccccc3nc12 (stereo not drawn)
Reply text: 31.4

Inquiry: // lookup TGI for COc1ccc(/C=C(\C)[N+](=O)[O-])cc1OC
Reply text: 5.11

Inquiry: Param item = C/C(=N\O)c1cccc(Nc2cc(-n3ccnc3)c3ccccc3n2)c1 ; retrieve measured TGI.
Reply text: 27.2

* * *

# Test system: OVCAR-4 ovarian
# test summary: NCI tumour cell line growth inhibition, 48 h
experimental readout: TGI

Inquiry: Give TGI (OVCAR-4 ovarian) of the following compound: c1cc(N2CCN(c3ccc(C4=NCCCN4)cc3)CC2)ccc1C1=NCCCN1
Reply text: > 100 µM

Inquiry: What is its TGI for OVCAR-4 ovarian? Entry: CCOC(=O)Cn1nnc2ccc(Nc3nc4ccccc4nc3-c3ccccc3)cc21
Reply text: > 100 µM

Inquiry: Record lookup: for OVCAR-4 ovarian, what TGI belongs to CN1CCN(P2(=S)Oc3ccc4ccccc4c3-c3c(ccc4ccccc34)O2)CC1 ?
Reply text: > 100 µM

Inquiry: # query: TGI | item CCOC(=O)c1c[nH]c2ccc3c(c2c1=O)S(=O)(=O)CC3 (tested in a mixture with another compound) | system: OVCAR-4 ovarian
Reply text: > 100 µM

Inquiry: Lab note: need TGI for C=CCc1cc(Nc2c3ccc(Cl)cc3nc3ccc(OC)cc23)cc(CN(CC)CC)c1O on OVCAR-4 ovarian, anyone have it?
Reply text: 12.2 µM

Inquiry: Form: Entry = CN1CCc2nc3sc(C(N)=O)c(N)c3c(-c3cccs3)c2C1 | System = OVCAR-4 ovarian | TGI = ____
Reply text: > 100 µM

Inquiry: Record lookup: for OVCAR-4 ovarian, what TGI belongs to c1ccc(CC2COC(c3cccs3)=N2)cc1 (configuration not stated) ?
Reply text: > 100 µM

Inquiry: Provide the documented TGI with OVCAR-4 ovarian as the system for Nc1ccc(Nc2cc(=O)[nH]c(=O)[nH]2)cc1Cl
Reply text: > 100 µM

Inquiry: I'm curious: which TGI was measured for CN1CCN(c2ccc3c(c2)NCC(=O)N3)CC1 tested on OVCAR-4 ovarian?
Reply text: > 100 µM

Inquiry: // map COc1cc(Oc2nc3ccc(C(F)(F)F)cc3nc2-c2ccccc2)cc(OC)c1OC to recorded TGI (system: OVCAR-4 ovarian)
Reply text: 26.3 µM

Inquiry: Give the reported TGI for O=[N+]([O-])c1ccc(C(O)(C#CCN2CCCC2)c2ccccc2)cc1 (configuration not stated) (system: OVCAR-4 ovarian).
Reply text: > 100 µM

Inquiry: # returns recorded TGI (system: OVCAR-4 ovarian) for Cc1ccccc1C(=O)C1CCCCC1O (configuration not stated)
Reply text: > 100 µM

Inquiry: Enter reported TGI observed with OVCAR-4 ovarian for N#CCN1C(=O)c2cc([N+](=O)[O-])cc3cc([N+](=O)[O-])cc(c23)C1=O
Reply text: 28.4 µM

Inquiry: Please provide the recorded TGI for O=C(NCCNCCO)c1cccc2ccc(-c3ccccc3)nc12 , tested on OVCAR-4 ovarian.
Reply text: 18.5 µM

Inquiry: API: value(readout=TGI, system=OVCAR-4 ovarian) for record OC(c1cccnc1Cl)c1nc2ccccc2c2ccnc(Cl)c12 (configuration not stated)
Reply text: > 100 µM

Inquiry: Give OVCAR-4 ovarian TGI for COc1cc(C(=O)Nc2cc(O)c(CC=C(C)C)c(O)c2)cc2c1O[C@]1(C)CC[C@@H](O)C(C)(C)[C@H]1C2
Reply text: > 100 µM

Inquiry: GET /values?readout=TGI&system=OVCAR-4 ovarian&item= N#CNc1nc(N)c(-c2ccc(Cl)cc2)c(C(=O)Nc2nccs2)n1
Reply text: > 100 µM

Inquiry: OVCAR-4 ovarian / TGI / O=NN(CCF)C(=O)NC1CCSCC1 : value?
Reply text: > 100 µM

Inquiry: What is its TGI for OVCAR-4 ovarian? Entry: CC1c2ccccc2CCN1c1ccc(CO)c(Cl)c1 (configuration not stated)
Reply text: 2.7 µM

Inquiry: Notebook entry, OVCAR-4 ovarian assay: TGI of CN1CCN(CCCCCN=c2cc3c(=O)n(CCCCCN4CCN(C)CC4)c(=O)c4c(NCCCCCN5CCN(C)CC5)cc5c(O)n(CCCCCN6CCN(C)CC6)c(=O)c2c5c4-3)CC1 = ?
Reply text: 5.61 µM

Inquiry: Record lookup: for OVCAR-4 ovarian, what TGI belongs to C=CCOc1ccc(C2C(C(=O)OC)C(=O)CC(O)(c3ccccc3)C2C(=O)OC)cc1OC (configuration not stated) ?
Reply text: 69.5 µM

Inquiry: Which measured TGI belongs to COc1ccc(-c2cc(=O)c3c(O)cccc3o2)c(OC)c1OC , tested on OVCAR-4 ovarian?
Reply text: > 100 µM
